# target desc: HLA-DRB1*11:01 MHCII molecule (human)
# assay remarks: competition ELISA; 50 nM huCLIP-bio
# test conditions: modification not given
value kind: pIC50
pIC50 here is simply -log10 of the concentration when that concentration is written in mol/L.

Sample PVSQMRMATPLLMRP [mCLIP] — what was its pIC50?
7.43
